- assay.target: T1, HD49 (huntingtin exon 1 protein with 49 polyQ repeats after cleavage of the GST tag; aggregation reaction) (human, UniProt P42858 1-88)
- T1 chain: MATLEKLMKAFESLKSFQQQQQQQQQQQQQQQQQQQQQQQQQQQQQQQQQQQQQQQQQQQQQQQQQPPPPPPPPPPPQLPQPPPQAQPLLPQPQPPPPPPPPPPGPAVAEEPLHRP
- experiment.description: ELISA
Reported EC50 values for the following binders.
reported.endpoint: EC50 (nM)

[
  {
    "binder": "NI-302.4A6 (antibody, V domains shown) VH: EVQLVESGGGLVQPGGSLRLSCAASGFTFSAYAMSWVRQAPGKGLEWVSTISGSGGSTYYADSVKGRFSISRDNSKNTLYLQMNSLRAEDTAVYFCAKVTTELYGANSYYYYMDVWGKGTTVTVSS VL: EIVLTQSPGTLSLSPGERATLSCRASQSVVSRYLAWYQQKPGQAPRLLIYGASSRATGIPDRFSGSGSGTDFTLTISRLEPEDFAMYYCQLYGNSQTFGQGTKVEIK",
    "reported.relation": "=",
    "data.value": 3
  },
  {
    "binder": "NI-302.15E8 (antibody, V domains shown) VH: EVQLVESGGGLIQPGGSLRLSCAVSGFTVSSYSMNWVRQAPGKGLEWVSYTSSSRSNTKKYADSVKGRFTISRDNARNSLYLQMNSLRDEDTAVYYCARAGDFGELLTGEGYYGMDVWGQGTTVTVSS VL: SYELTQPPSVSVSPGQTATITCSGDELGDKYVGWYQQKPGQSPLLVIYQDAKRPSGIPERFSGSNSGNTATLTISGTQAMDEADYYCQAWDSGTMVFGGGTRLTVL",
    "reported.relation": ">",
    "data.value": 100
  },
  {
    "binder": "NI-302.64E5 (antibody, V domains shown) VH: EVQLVETGGGLVKPGGSLRLSCAASGFTFDQAWMSWVRQVPGKGLEWVGRIKTKTEGEATDYAAPVRGRFTISRDDSEDTVFLQMNSLKTEDTALYYCTSTGVLAAAVDVYWGQGTLVTVSS VL: DIQLTQSPDSLAVSLGERATMTCKSSQSLFYSYNNENYLAWYQQRPGQPPKLLIYWASTRESGVPDRFSGSGSGTDFTLTISSLQAEDVAVYYCQQYYSTPQTFGQGTKVDIK",
    "reported.relation": "=",
    "data.value": 1.6
  }
]
